Readings of TDCC EC50 (EJM cells) for the listed binders
Target: T1, human BCMA on BCMA expressing cell lines (human, UniProt Q02223 1-184)
T1 sequence: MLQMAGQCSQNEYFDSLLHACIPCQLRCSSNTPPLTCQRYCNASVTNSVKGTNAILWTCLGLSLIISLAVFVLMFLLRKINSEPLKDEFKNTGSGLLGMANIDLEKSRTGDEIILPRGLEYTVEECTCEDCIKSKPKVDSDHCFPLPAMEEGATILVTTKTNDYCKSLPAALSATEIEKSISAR
Assay: cell-based or functional assay
Just the number in nM, nothing appended.

Sample records with TDCC EC50 (EJM cells):
• BCMA targeting trispecific protein 02G01 (other, trispecific; not shown: the C-terminal 6xHis tag follows those missing domains and is left out) VHH: EVQLVESGGGLVQPGRSLTLSCAASTNIFSINPMGWYRQAPGKQRELVAAIHGFDTLYADSVKGRFTISRDNAKNSIYLQMNSLRPEDTALYYCNKVPWGDYHPRNVSWGQGTQVTVSS = 0.0108
• BCMA targeting trispecific protein 01B02 (other, trispecific; not shown: anti-albumin domain, anti-CD3 domain and the linkers of the trispecific; the C-terminal His6 that follows them is left out) VHH: EVQLVESGGGLVQPGRSLTLSCAASTNITSISPMGWYRQAPGKQRELVAAISGFSTLYADSVKGRFTISRDNAKNSIYLQMNSLRPEDTALYYCNEVPWGDYHPRNVYWGQGTQVTVSS = 0.359
• BCMA targeting trispecific protein 01C06 (other, not shown: large carriers; small tags and cut ends, trispecific) VHH: EVQLVESGGGLVQPGRSLTLSCAASTNIFSISPMGWYRQAPGKQRELVAAIHGDSTLYADSVKGRFTISRDNAKNSIYLQMNSLRPEDTALYYCNKVPWGKYHPRNVYWGQGTQVTVSS = 0.0251

Lab note: next binder to report on.
The recorded TDCC EC50 (EJM cells) for BCMA targeting trispecific protein 02F11 (other, trispecific; not shown: anti-albumin domain, anti-CD3 domain and the linkers of the trispecific (TriTAC) format) VHH: EVQLVESGGGLVQPGRSLTLSCAASTNIFSTSPMGWYRQAPGKQRELVAAIHGTSTLYADSVKGRFTISRDNAKNSIYLQMNSLRPEDTALYYCNKVPWGDYHPRNVQWGQGTQVTVSS is 0.0152
